Compiled from multiple publications: pIC50 readings for Dihydroorotate dehydrogenase (quinone), mitochondrial (Homo sapiens, UniProt Q02127).
pIC50: −log10 of the molar value.
attribute_measured: pIC50

CCOc1cc(NC(=O)/C(C#N)=C(/C)O)c(F)cc1C(=O)Nc1c(Cl)cccc1Cl; 7.76
Cc1n[nH]c(Nc2ccc(C(F)(F)F)cc2)c1C; 4.65
Cc1c(-c2ccc(-c3ccccc3F)cc2)nc2ccc(F)cc2c1C(=O)NS(C)(=O)=O; 7.49
CCn1c(CO)nn(-c2nc(O[C@@H](C)C(F)(F)F)c(C(=O)Nc3c(F)cnc(OC)c3C#N)cc2F)c1=O; 7.80
O=C(O)C1=C(C(=O)Nc2ccc(-c3ccc(Br)cc3)cc2F)CCC1; 6.13
